Recorded MIC values (E. coli JM83 cells harboring pSP007) are given below.
parameter: MIC (µg/mL)

- CN[C@@H]1[C@H](O)[C@H](NC)[C@H]2O[C@@]3(O)C(=O)C[C@@H](C)O[C@H]3O[C@@H]2[C@H]1O: 12.5
- O=C1C=CC(O)C1O (centres unmarked) [DHCP, 4,5-dihydroxy-2-cyclopenten-1-one]: 200
- NC[C@H]1O[C@H](O[C@H]2[C@H](O)[C@@H](O[C@H]3O[C@H](CO)[C@@H](O)[C@H](N)[C@H]3O)[C@H](N)C[C@@H]2N)[C@H](O)[C@@H](O)[C@@H]1O: 50
- O=C(N[C@H](CO)[C@H](O)c1ccc([N+](=O)[O-])cc1)C(Cl)Cl: 6.25
- CN(C)[C@@H]1C(O)=C(C(N)=O)C(=O)[C@@]2(O)C(O)=C3C(=O)c4c(O)cccc4[C@@](C)(O)[C@H]3C[C@@H]12: 3.12
